target: human MET (c-Met) on cells (SKOV-3, BxPC3) (human, UniProt P08581 25-1390); experiment: cell-based or functional assay
Sequence (P08581 25-1390): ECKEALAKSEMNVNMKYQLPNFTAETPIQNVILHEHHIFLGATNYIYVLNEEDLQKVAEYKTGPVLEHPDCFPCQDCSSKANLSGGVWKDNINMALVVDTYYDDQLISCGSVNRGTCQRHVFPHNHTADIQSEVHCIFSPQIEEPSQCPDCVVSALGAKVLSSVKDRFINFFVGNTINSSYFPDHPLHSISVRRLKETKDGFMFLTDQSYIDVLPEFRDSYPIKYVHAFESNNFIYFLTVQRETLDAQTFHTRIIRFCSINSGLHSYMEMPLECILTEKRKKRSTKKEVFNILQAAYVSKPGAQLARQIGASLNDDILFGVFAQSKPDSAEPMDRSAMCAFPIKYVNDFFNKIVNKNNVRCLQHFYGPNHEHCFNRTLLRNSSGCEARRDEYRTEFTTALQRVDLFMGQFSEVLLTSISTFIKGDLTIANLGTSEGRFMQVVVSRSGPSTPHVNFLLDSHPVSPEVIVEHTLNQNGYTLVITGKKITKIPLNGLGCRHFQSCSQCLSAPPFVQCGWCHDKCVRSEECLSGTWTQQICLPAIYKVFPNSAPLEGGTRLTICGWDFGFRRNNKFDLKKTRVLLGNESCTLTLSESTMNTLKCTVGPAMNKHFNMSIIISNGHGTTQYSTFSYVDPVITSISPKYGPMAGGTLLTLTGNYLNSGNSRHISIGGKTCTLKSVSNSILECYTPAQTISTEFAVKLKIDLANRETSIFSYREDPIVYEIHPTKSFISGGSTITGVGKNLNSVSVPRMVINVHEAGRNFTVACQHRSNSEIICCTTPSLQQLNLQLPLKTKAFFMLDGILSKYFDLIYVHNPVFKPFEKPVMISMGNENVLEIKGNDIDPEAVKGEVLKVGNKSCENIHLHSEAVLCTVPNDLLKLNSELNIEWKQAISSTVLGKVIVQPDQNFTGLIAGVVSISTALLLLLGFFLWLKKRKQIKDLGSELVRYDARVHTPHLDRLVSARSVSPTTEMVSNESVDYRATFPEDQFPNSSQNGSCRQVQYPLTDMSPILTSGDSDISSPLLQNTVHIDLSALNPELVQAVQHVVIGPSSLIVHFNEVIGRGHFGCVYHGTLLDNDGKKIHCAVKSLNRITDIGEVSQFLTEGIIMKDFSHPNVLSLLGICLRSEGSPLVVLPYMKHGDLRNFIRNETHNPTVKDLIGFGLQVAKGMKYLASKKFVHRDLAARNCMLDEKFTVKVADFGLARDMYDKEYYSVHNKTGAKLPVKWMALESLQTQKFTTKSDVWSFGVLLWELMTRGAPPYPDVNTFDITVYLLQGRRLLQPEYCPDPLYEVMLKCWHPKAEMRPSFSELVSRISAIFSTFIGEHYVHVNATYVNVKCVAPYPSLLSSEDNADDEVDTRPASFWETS
measured.property: IC50, inhibition of HGF/SF-induced migration of SKOV-3 cells, Assay 3 (nM)
Provide the reading as a plain figure in nM.

107_A07 Fab (His/tri-FLAG tagged, hinged) (Fab, V domains shown, Fab from pBIOCAM7-3F in HEK293 cells, hinged format (Leu-Glu after VH), hexahistidine and tri-FLAG tags on the heavy chain) VH: QMQLVQSGAEVKKPGAPVKVSCKVSGYTFTDYYMHWVQQAPGKGLEWMGLVDPEDGETIYAEKFQGRVTITADTSTDTAYMELSSLRSEDTAVYYCATDATTPYWGMMWWGQGTLVTVSS VL: DIQMTQSPSSLSASVGDRVTITCQASQDISNYLNWYQQKPGRAPKVLIYDASNLETGVPSRFSGSGSGTEFTLTISNLRPDDFATYYCQQGDSFPLTFGGGTKVEIK ... 3.1
7A2 Fab (His- and FLAG-tagged, hinged format) (Fab, V domains shown, Fab from pBIOCAM7-3F in HEK293 cells, hinged format (Leu-Glu after VH), hexahistidine and tri-FLAG tags at the C-terminus of the heavy chain) VH: QMQLVQSGAEVKKPGAPVKVSCKVSGYTFTDYYMHWVQQAPGKGLEWMGLVDPEDGETIYAEKFQGRVTITADTSTDTAYMELSSLRSEDTAVYYCATDATTPYYGMDVWGQGTLVTVSS VL: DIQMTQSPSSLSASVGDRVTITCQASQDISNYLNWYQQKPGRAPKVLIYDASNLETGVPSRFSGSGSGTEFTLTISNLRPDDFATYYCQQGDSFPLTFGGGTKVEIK ... 278
107_A01 Fab (His/tri-FLAG tagged, hinged) (Fab, V domains shown, Fab from pBIOCAM7-3F, hinged, hexahistidine and tri-FLAG tags on the heavy chain) VH: QMQLVQSGAEVKKPGAPVKVSCKVSGYTFTDYYMHWVQQAPGKGLEWMGLVDPEDGETIYAEKFQGRVTITADTSTDTAYMELSSLRSEDTAVYYCATDATTPYWGMVSWGQGTLVTVSS VL: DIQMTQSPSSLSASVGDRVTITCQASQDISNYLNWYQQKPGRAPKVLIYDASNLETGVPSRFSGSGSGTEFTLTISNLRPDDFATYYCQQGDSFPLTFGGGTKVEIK ... 11.4

Consider the additional binder presented here.
// IC50, inhibition of HGF/SF-induced migration of SKOV-3 cells, Assay 3 lookup, binder = 110_A01 Fab (His/tri-FLAG tagged, hinged) (Fab, V domains shown, Fab from pBIOCAM7-3F, hinged, hexahistidine and tri-FLAG tags on the heavy chain) VH: QMQLVQSGAEVKKPGAPVKVSCKVSGYTFTDYYMHWVQQAPGKGLEWMGLVDPEDGETIYAEKFQGRVTITADTSTDTAYMELSSLRSEDTAVYYCATDATTPYWFPYLWGQGTLVTVSS VL: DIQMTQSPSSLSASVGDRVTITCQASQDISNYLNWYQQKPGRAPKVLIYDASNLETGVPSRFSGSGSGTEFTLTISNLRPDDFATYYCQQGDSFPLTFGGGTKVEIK , result: 2.6
